- method description: NCI Yeast Anticancer Drug Screen. Data for the rad50EPP+ strain (AID 151)
- recorded conditions: S. cerevisiae rad50 mutant strain, at 100.0 µM
About 79,000 compounds went through this panel and 15% of them were active in at least one assay; those are over-represented in the sample as a whole. Active and inactive are the calls of the source. Rule as the data show it: active = growth inhibition above about 70%; inactive = the rest.
Classes used: active, inactive

>  <compound>
CN1C(=O)C(CC(=O)O)NC1=S (stereo unspecified)

>  <assigned category>
inactive

$$$$
>  <compound>
NC(CS)C(=O)NCCNc1ccc(NCCNC(=O)C(N)CS)c2c1C(=O)c1c(O)ccc(O)c1C2=O (stereo unspecified)

>  <assigned category>
inactive

$$$$
>  <compound>
CC(=O)N1C=Cc2c(c(C)c3c([nH]c4ccccc43)c2C)C1

>  <assigned category>
active

$$$$
>  <compound>
CCOC(=O)CC1(C)/C(=N\Nc2ccc([N+](=O)[O-])cc2[N+](=O)[O-])CCC2C1CCC1(C)C(C(C)CCCC(C)C)CCC21 (stereo unspecified)

>  <assigned category>
inactive

$$$$
>  <compound>
O=C(Nc1cccs1)c1ccccc1

>  <assigned category>
inactive

$$$$
>  <compound>
CN(C)CCNC(=Cc1ccc2ccccc2[n+]1C)NCCN(C)C

>  <assigned category>
inactive

$$$$
>  <compound>
O=C1c2cccc3cccc(c23)C(=O)N1CCNCCN1C(=O)c2cccc3cccc(c23)C1=O

>  <assigned category>
inactive

$$$$
>  <compound>
Cc1ccc([N+](=O)[O-])c2c(NCCC[N+](C)(C)[O-])c3ccccc3nc12

>  <assigned category>
inactive

$$$$
>  <compound>
O=C(NCCNCCNC(=O)c1cc(-c2ccccc2)nc2ccccc12)c1cc(-c2ccccc2)nc2ccccc12

>  <assigned category>
inactive

$$$$
>  <compound>
CCC(=O)C1=C(O)c2cc(OC)ccc2CC1C(=O)OC (stereo unspecified)

>  <assigned category>
active

$$$$
>  <compound>
CC(CN(C)C)C(=O)/C=C/c1ccc(Cl)c(Cl)c1 (stereo unspecified)

>  <assigned category>
active

$$$$
>  <compound>
N#Cc1nc(Nc2ccc(Cl)cc2)sc1N

>  <assigned category>
inactive

$$$$
>  <compound>
CC(C)N(CCCNc1c2ccccc2nc2cccc([N+](=O)[O-])c12)C(C)C

>  <assigned category>
active

$$$$
>  <compound>
Cc1cccc(C)c1NC(=O)CCC(=O)C(C)C(=O)c1ccc(O)cc1 (stereo unspecified)

>  <assigned category>
inactive

$$$$
>  <compound>
C=CCNC1=C2C[C@@H](C)C[C@H](OC)[C@H](O)[C@@H](C)/C=C(\C)[C@H](OC(N)=O)[C@@H](OC)/C=C\C=C(/C)C(=O)NC(=CC1=O)C2=O

>  <assigned category>
inactive

$$$$
>  <compound>
CC12CCC(CC(=O)/C1=C(/Br)I)C2(C)C (stereo unspecified)

>  <assigned category>
inactive

$$$$
>  <compound>
O=C(NC(N1CCN(c2cc3c(cc2F)c(=O)c(C(=O)O)cn3C2CC2)CC1)(C(F)(F)F)C(F)(F)F)c1ccccc1

>  <assigned category>
inactive

$$$$
>  <compound>
O=c1[nH]c2c([N+](=O)[O-])cccc2c2ccccc12

>  <assigned category>
active

$$$$
>  <compound>
COC(=O)c1cnc(Cl)c([N+](=O)[O-])c1

>  <assigned category>
active

$$$$
>  <compound>
COC1/C=C\C=C(/C)C(=O)NC2=CC(=O)C(=O)C(=C2O)CC(C)CC(OC)C(O)C(C)/C=C(\C)C1OC(N)=O (stereo unspecified)

>  <assigned category>
inactive

$$$$
>  <compound>
O=C1SS(=O)c2ccccc21 (stereo unspecified)

>  <assigned category>
inactive

$$$$

###

- method description: NCI Yeast Anticancer Drug Screen. Data for the sgs1 mgt1 strain (AID 161)
- recorded conditions: S. cerevisiae sgs1 mgt1 strain, at 50.0 µM
Compounds without any hit were thinned out: in the full panel of roughly 79,000, 15% have a hit. Active and inactive are the calls of the source. Rule as the data show it: active = growth inhibition above about 70%; inactive = the rest.
Classes used: active, inactive

>  <compound>
COc1cccc(/C=C2\S/C(=N/Nc3nc(-c4ccc([N+](=O)[O-])cc4)cs3)NC2=O)c1O

>  <assigned category>
active

$$$$
>  <compound>
O=C1Nc2ccc(Br)cc2C1=Nc1cccnc1

>  <assigned category>
inactive

$$$$
>  <compound>
Cc1ccc(S(=O)(=O)Nc2cccc3cccnc23)cc1

>  <assigned category>
inactive

$$$$
>  <compound>
CC(/C=C/c1ccc([N+](=O)[O-])o1)=N/N1CC(CN2CCOCC2)OC1=O (stereo not drawn)

>  <assigned category>
active

$$$$
>  <compound>
COc1cc([C@@H]2c3cc4c(cc3[C@@H](NC(=O)NO)[C@H]3COC(=O)[C@H]23)OCO4)cc(OC)c1O

>  <assigned category>
inactive

$$$$
>  <compound>
Brc1ccc(B2Nc3ccccc3N2)cc1

>  <assigned category>
active

$$$$
>  <compound>
CC1(C)C(O)OC(O)C1(C)C (stereo not drawn)

>  <assigned category>
inactive

$$$$
>  <compound>
O=C(C#Cc1ccccc1)/C=C/c1ccccc1

>  <assigned category>
active

$$$$
>  <compound>
O=c1c2ccccc2nc(-c2ccc(Cl)cc2)n1O

>  <assigned category>
active

$$$$
>  <compound>
O=C(/C(=C/c1ccc(O)cc1)c1ccccc1)c1ccccc1

>  <assigned category>
active

$$$$
>  <compound>
CC(=O)/C(=C\c1ccc(Cl)c(Cl)c1)C(=O)C(C)CN(C)C (stereo not drawn)

>  <assigned category>
active

$$$$
>  <compound>
CCC[CH2][Ge]([CH2]CCC)([CH2]CCC)[O]C(=O)C(O)c1ccccc1 (stereo not drawn)

>  <assigned category>
active

$$$$
>  <compound>
O=S(=O)(c1ccccc1)N1CN2CN(C1)CN(S(=O)(=O)c1ccccc1)C2

>  <assigned category>
inactive

$$$$
>  <compound>
CCOP(=O)(OCC)/C(C#N)=C/c1ccc(-c2ccc(F)cc2F)o1

>  <assigned category>
inactive

$$$$
>  <compound>
O=C(O)/C=C\C(=O)Nc1ccc2c(c1)Cc1cc(Cl)ccc1-2

>  <assigned category>
inactive

$$$$
>  <compound>
C/C(=N/NC(=S)Nc1ccccc1C)c1ccccn1

>  <assigned category>
active

$$$$
>  <compound>
O/N=c1/ccn(O)c2ccccc12

>  <assigned category>
active

$$$$
>  <compound>
CCCCS/C(=C(/C#N)C(N)=O)c1cc2c([nH]1)CCCC2

>  <assigned category>
inactive

$$$$
>  <compound>
O=C1C(/C=C/c2ccc(Cl)cc2)=NNC2N1N=C1NC(=O)C3(NN12)c1ccccc1-c1ccccc13 (stereo not drawn)

>  <assigned category>
active

$$$$
>  <compound>
CCCCCCCN1C(=O)c2ccccc2C1=O

>  <assigned category>
inactive

$$$$
>  <compound>
NCCCSc1ccccc1

>  <assigned category>
inactive

$$$$
>  <compound>
CN(N=O)C(=O)Nc1ccc(C(=O)O)cc1

>  <assigned category>
inactive

$$$$
>  <compound>
CC(C)[Si]1(C(C)C)OCC2OC(n3cnc4c(N)ncnc43)C(N)C2O[Si](C(C)C)(C(C)C)O1 (stereo not drawn)

>  <assigned category>
active

$$$$

###

- method description: NCI Yeast Anticancer Drug Screen. Data for the mec2-1 strain (AID 157)
- recorded conditions: S. cerevisiae mec2-1 strain, at 50.0 µM
About 79,000 compounds went through this panel and 15% of them were active in at least one assay; those are over-represented in the sample as a whole. Active and inactive are the calls of the source. No stated cut-off is given here; in the data, active means growth inhibition above about 70%; inactive means the rest.
Classes used: active, inactive

>  <compound>
O=C(O)C1CCCCC1c1c2ccc(=O)cc-2oc2cc(O)ccc12 (configuration not stated)

>  <assigned category>
active

$$$$
>  <compound>
N#CC1OB(O)c2ccccc21 (configuration not stated)

>  <assigned category>
inactive

$$$$
>  <compound>
CCC(=O)Nc1ccc(N=NN(C)C)cc1

>  <assigned category>
active

$$$$
>  <compound>
CC1=NN(C(=O)c2ccccc2O)C(=O)/C1=C/c1ccco1

>  <assigned category>
active

$$$$
>  <compound>
c1ccc2nc3c(nc2c1)sc1ccccc13

>  <assigned category>
inactive

$$$$
>  <compound>
CC(C(=O)N1C(=O)N(C(=O)C(C)C(O)c2ccccc2)C2CCCCC21)C(O)c1ccccc1 (configuration not stated)

>  <assigned category>
active

$$$$
>  <compound>
CCN(CC)CC(=O)c1ccc2cc(Cl)c3ccccc3c2c1

>  <assigned category>
active

$$$$
>  <compound>
CCCCS/C(=C(/C#N)C(N)=O)c1cc2c([nH]1)CCCC2

>  <assigned category>
inactive

$$$$
>  <compound>
O=C1c2ccccc2-c2ccc(N=Cc3ccccc3)cc21

>  <assigned category>
inactive

$$$$
>  <compound>
Nc1cc2ccccc2cc1N

>  <assigned category>
active

$$$$
>  <compound>
CCN1CCC(O)(c2ccc(Oc3ccc(Cl)cc3)cc2)C(C(=O)c2ccc(Oc3ccc(Cl)cc3)cc2)C1 (configuration not stated)

>  <assigned category>
active

$$$$
>  <compound>
OB(O)c1ccccc1C#Cc1ccccc1

>  <assigned category>
inactive

$$$$
